Each record here notes measured enzyme activity.
- Test system: Grans
- MEASUREMENT_NOTES: Peptidases to distinguish leukemia from non-leukemia, granulocytes
- Format: cell-based, human
- Design: unit not given here
- EXPERIMENTAL_SETUP: N99° normal
MEASURED_PARAMETER: enzyme activity

>>> result("C[C@@H](O)[C@H](N)C(=O)N1CCC[C@H]1C(=O)Nc1ccc2c(c1)Oc1cc(NC(=O)[C@@H]3CCCN3C(=O)[C@@H](N)[C@@H](C)O)ccc1C21OC(=O)c2ccccc21")
3.71
>>> result("C[C@H](N)C(=O)Nc1ccc2c(c1)Oc1cc(NC(=O)[C@H](C)N)ccc1C21OC(=O)c2ccccc21")
157.30
>>> result("CC(C)[C@H](N)C(=O)N[C@@H](CO)C(=O)Nc1ccc2c(c1)Oc1cc(NC(=O)[C@H](CO)NC(=O)[C@@H](N)C(C)C)ccc1C21OC(=O)c2ccccc21 [VS, (H--L--Val--Ser)2 Rho 110-2TFA]")
0.14
>>> result("NCC(=O)Nc1ccc2c(c1)Oc1cc(NC(=O)CN)ccc1C21OC(=O)c2ccccc21")
45.00
>>> result("NCCCC[C@H](N)C(=O)Nc1ccc2c(c1)Oc1cc(NC(=O)[C@@H](N)CCCCN)ccc1C21OC(=O)c2ccccc21 [LYS, (H--L--Lys)2 Rho 110-4TFA]")
0.95
>>> result("CC(C)C[C@H](N)C(=O)NCC(=O)Nc1ccc2c(c1)Oc1cc(NC(=O)CNC(=O)[C@@H](N)CC(C)C)ccc1C21OC(=O)c2ccccc21")
2.022
